Origin of the recorded values: the supplement of paper PMC5998384

Test system: HeLa Kyoto;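 note: HeLa Kyoto cells arrested at G1/S by double thymidine block, proteins quantified by TMT10plex mass spectrometry in mild NP-40 versus SDS extracts, three biological replicates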
Assay: solubility in G1/S (NP-40 vs SDS abundance) (log2 ratio); higher = more soluble
Settings: cell cycle stage: G1/S
property_name: solubility in G1/S (log2)
Numbers only.

Batch: solubility in G1/S (log2) for all items listed.
1. MSSGAASGTGRGRPRGGGPGPGDPPPSETHKLVVVGGGGVGKSALTIQFIQSYFVSDYDPTIEDSYTKICSVDGIPARLDILDTAGQEEFGAMREQYMRAGHGFLLVFAINDRQSFNEVGKLFTQILRVKDRDDFPVVLVGNKADLESQRQVPRSEASAFGASHHVAYFEASAKLRLNVDEAFEQLVRAVRKYQEQELPPSPPSAPRKKGGGCPCVLL [RRAS]
2. MYPESTTGSPARLSLRQTGSPGMIYSTRYGSPKRQLQFYRNLGKSGLRVSCLGLGTWVTFGGQITDEMAEQLMTLAYDNGINLFDTAEVYAAGKAEVVLGNIIKKKGWRRSSLVITTKIFWGGKAETERGLSRKHIIEGLKASLERLQLEYVDVVFANRPDPNTPMEETVRAMTHVINQGMAMYWGTSRWSSMEIMEAYSVARQFNLTPPICEQAEYHMFQREKVEVQLPELFHKIGVGAMTWSPLACGIVSGKYDSGIPPYSRASLKGYQWLKDKILSEEGRRQQAKLKELQAIAERLGCTLPQLAIAWCLRNEGVSSVLLGASNADQLMENIGAIQVLPKLSSSIIHEIDSILGNKPYSKKDYRS [KCNAB2]
3. MVWPWVAMASRWGPLIGLAPCCLWLLGAVLLMDASARPANHSSTRERVANREENEILPPDHLNGVKLEMDGHLNRGFHQEVFLGKDLGGFDEDAEPRRSRRKLMVIFSKVDVNTDRKISAKEMQRWIMEKTAEHFQEAMEESKTHFRAVDPDGDGHVSWDEYKVKFLASKGHSEKEVADAIRLNEELKVDEETQEVLENLKDRWYQADSPPADLLLTEEEFLSFLHPEHSRGMLRFMVKEIVRDLDQDGDKQLSVPEFISLPVGTVENQQGQDIDDNWVKDRKKEFEELIDSNHDGIVTAEELESYMDPMNEYNALNEAKQMIAVADENQNHHLEPEEVLKYSEFFTGSKLVDYARSVHEEF [SDF4]

1: 0.28; 2: 0.117; 3: 0.52

Batch: solubility in G1/S (log2) for all items listed.
1. MGGTTSTRRVTFEADENENITVVKGIRLSENVIDRMKESSPSGSKSQRYSGAYGASVSDEELKRRVAEELALEQAKKESEDQKRLKQAKELDRERAAANEQLTRAILRERICSEEERAKAKHLARQLEEKDRVLKKQDAFYKEQLARLEERSSEFYRVTTEQYQKAAEEVEAKFKRYESHPVCADLQAKILQCYRENTHQTLKCSALATQYMHCVNHAKQSMLEKGG [CHCHD3]
2. MEGGLGRAVCLLTGASRGFGRTLAPLLASLLSPGSVLVLSARNDEALRQLEAELGAERSGLRVVRVPADLGAEAGLQQLLGALRELPRPKGLQRLLLINNAGSLGDVSKGFVDLSDSTQVNNYWALNLTSMLCLTSSVLKAFPDSPGLNRTVVNISSLCALQPFKGWALYCAGKAARDMLFQVLALEEPNVRVLNYAPGPLDTDMQQLARETSVDPDMRKGLQELKAKGKLVDCKVSAQKLLSLLEKDEFKSGAHVDFYDK [SPR]

0.229
0.0864
